The values you see were collected from the supplement of paper PMC4862054.

Tested on: HDQ-P1
test-method-notes: normalised viability (% of control), CellTiter-Blue; higher = more viable cells (about 100 = DMSO control)
run-conditions: 30 nM; incubation time: 72 h

smiles-input	normalised viability [%]
Nc1ccn([C@@H]2O[C@H](CO)[C@@H](O)[C@@H]2O)c(=O)n1	94.8
S=c1[nH]cnc2nc[nH]c12	110
CN(C)C/C=C/C(=O)Nc1cc2c(Nc3ccc(F)c(Cl)c3)ncnc2cc1O[C@H]1CCOC1	76.9
OC[C@H]1O[C@@H](n2cnc3c2N=CNC[C@H]3O)C[C@@H]1O	99
C[C@]1(c2nc3c(C(N)=O)cccc3[nH]2)CCCN1	93.3
COc1cccc2cc(-c3nc([C@H]4CC[C@H](C(=O)O)CC4)n4ncnc(N)c34)[nH]c12	80.4
